Recorded zone of inhibition at 1000 µg/mL for the following compounds
Test system: Aspergillus flavus
Experiment: Antifungal activity against Aspergillus flavus MTCC 3306 at 1000 ug/mL after 72 hrs by well plate method
Assay type: functional
Settings: MTCC 3306, 72 h, read-out: DIZ
// return numeric value only (unit: mm, not printed)

The compound listed as COc1cc(C2CC(=NOC(=O)c3ccc(F)cc3)CC(c3ccc(O)c(OC)c3)N2C)ccc1O (stereo unspecified) shows zone of inhibition at 1000 µg/mL equal to 17

---

Experiment: Antioxidant activity assessed as ABTS+ radical scavenging activity after 30 mins by UV-vis spectrophotometric analysis
Assay type: functional
// assign t if IC50 falls strictly below 40 µM, else f (ties count as f)

| compound | class-assignment |
| --- | --- |
| COc1cc(C2CC(=NOC(=O)c3ccc(F)cc3)CC(c3ccc(O)c(OC)c3)N2C)ccc1O (stereo not given) | f |
| COc1cc(C2CC(=NOC(=O)c3ccc(O)cc3)CC(c3ccc(O)c(OC)c3)N2C)ccc1O (stereo not given) | t |
| COc1cc(C2CC(=NOC(=O)c3ccccc3O)CC(c3ccc(O)c(OC)c3)N2C)ccc1O (stereo not given) | t |

Now look at this entry.
Dear colleague, could you confirm whether IC50 of COc1cc(C2CC(=NOC(=O)c3ccc(Br)cc3)CC(c3ccc(O)c(OC)c3)N2C)ccc1O (stereo not given) falls below 40 µM? Thanks.
f
